Data credit: patent US7632666B2

Item-by-item account of Relative enzyme activity (%) 5% of solvent
Biological target: haloalkane dehalogenase DbjA (Bradyrhizobium diazoefficiens, UniProt P59337)
Sequence (P59337 whole entry): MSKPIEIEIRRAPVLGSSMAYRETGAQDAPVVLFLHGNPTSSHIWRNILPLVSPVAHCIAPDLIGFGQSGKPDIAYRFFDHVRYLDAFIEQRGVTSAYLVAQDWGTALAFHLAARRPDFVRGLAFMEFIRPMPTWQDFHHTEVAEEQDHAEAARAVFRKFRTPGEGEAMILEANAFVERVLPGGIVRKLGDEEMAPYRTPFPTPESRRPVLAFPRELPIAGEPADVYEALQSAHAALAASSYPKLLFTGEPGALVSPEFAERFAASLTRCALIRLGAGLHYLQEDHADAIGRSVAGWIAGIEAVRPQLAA
Assay type: biochemical, Bradyrhizobium japonicum USDA110
Conditions: pH 8.6

molecule | endpoint.result
C1COCCO1 | 121.4 ± 3.9%
CC(C)=O | 113.8 ± 7.3%
CN(C)C=O [N,N-dimethylformamide] | 110.5 ± 11.6%
CO | 93.5 ± 0.9%
CC#N | 117.5 ± 8.9%
NC=O [Formamide] | 73.4 ± 7.6%
OCCO | 87.1 ± 9.8%

// switching to the query molecule
What measured Relative enzyme activity (%) 5% of solvent goes with C1CCOC1 [tetrahydrofurane] ? 111.9 ± 13.4%

====

The compounds listed here are annotated with their Relative activities (% of wt) L177G.
Target: haloalkane dehalogenase LinB L177G (Sphingobium indicum, UniProt D4Z2G1, L177G)
Sequence (D4Z2G1 whole entry L177G, looked up): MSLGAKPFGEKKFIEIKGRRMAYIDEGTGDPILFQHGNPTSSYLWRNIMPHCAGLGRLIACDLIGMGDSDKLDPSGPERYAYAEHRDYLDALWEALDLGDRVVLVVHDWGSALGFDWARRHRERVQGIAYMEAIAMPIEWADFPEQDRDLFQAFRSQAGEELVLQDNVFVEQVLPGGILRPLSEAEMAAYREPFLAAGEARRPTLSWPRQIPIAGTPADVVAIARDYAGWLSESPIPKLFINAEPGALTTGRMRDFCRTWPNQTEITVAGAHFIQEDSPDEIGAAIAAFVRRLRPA
Assay type: biochemical

query.smiles | endpoint.result
ICCCI | 164 % of wt
CCCCI | 344 % of wt
CCCCBr | 380 % of wt

// fetch haloalkane dehalogenase LinB L177G (Sphingobium indicum, UniProt D4Z2G1, L177G) Relative activities (% of wt) L177G for "BrCCBr" 78 % of wt

Find Relative activities (% of wt) L177G (haloalkane dehalogenase LinB L177G (Sphingobium indicum, UniProt D4Z2G1, L177G)) for the entry "C=C(C)CCl" 200 % of wt

====

Target: haloalkane dehalogenase LinB L177K (Sphingobium indicum, UniProt D4Z2G1, L177K)
Sequence (D4Z2G1 whole entry L177K, looked up): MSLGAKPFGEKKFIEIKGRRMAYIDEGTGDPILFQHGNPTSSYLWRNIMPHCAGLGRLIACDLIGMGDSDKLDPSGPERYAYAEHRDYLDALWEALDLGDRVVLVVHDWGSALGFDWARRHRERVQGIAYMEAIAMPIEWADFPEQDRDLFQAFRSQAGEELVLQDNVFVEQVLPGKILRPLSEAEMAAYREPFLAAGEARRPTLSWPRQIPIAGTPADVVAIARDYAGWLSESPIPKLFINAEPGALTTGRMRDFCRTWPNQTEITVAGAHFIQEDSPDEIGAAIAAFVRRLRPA
Assay type: biochemical
Entries and their Relative activities (% of wt) L177K values follow.

Item under review: CCCCBr [1-bromobutane] . Reported Relative activities (% of wt) L177K? 201 % of wt

Using the record for BrCCBr [1,2-dibromoethane] , report its Relative activities (% of wt) L177K. 97 % of wt

May I ask what Relative activities (% of wt) L177K has been recorded for C=C(C)CCl [3-chloro-2-methylpropene] ? 110 % of wt

Consider the compound ICCCI [1,3-diidopropane] and give its measured Relative activities (% of wt) L177K. 132 % of wt

// query Relative activities (% of wt) L177K value for entry CCCCI [1-iodobutane] 131 % of wt

====

Molecular target: haloalkane dehalogenase LinB L177W (Sphingobium indicum, UniProt D4Z2G1, L177W)
Assay type: biochemical
readout.label: Relative activities (% of wt) L177W

// below: answered molecules
molecule | endpoint.result
BrCCBr [1,2-dibromoethane] | 7 % of wt
CCCCI [1-iodobutane] | 58 % of wt
ICCCI [1,3-diidopropane] | 117 % of wt
CCCCBr [1-bromobutane] | 60 % of wt

# query: Relative activities (% of wt) L177W of entry C=C(C)CCl [3-chloro-2-methylpropene] 91 % of wt

====

Molecular target: haloalkane dehalogenase LinB L177R (Sphingobium indicum, UniProt D4Z2G1, L177R)
Sequence (D4Z2G1 whole entry L177R, looked up): as the sequence (D4Z2G1 whole entry L177G, looked up) above, with G177R counted along it
Assay type: biochemical
readout.label: Relative activities (% of wt) L177R

query.smiles | target | readout.label | endpoint.result
BrCCBr | haloalkane dehalogenase LinB L177R (Sphingobium indicum, UniProt D4Z2G1, L177R) | Relative activities (% of wt) L177R | 68 % of wt

Any idea what its Relative activities (% of wt) L177R is? The compound is "CCCCBr" 165 % of wt

Which Relative activities (% of wt) L177R reading was recorded for the compound "CCCCI" ? 161 % of wt

Query (compound): "ICCCI" ; field requested: Relative activities (% of wt) L177R 127 % of wt

Which Relative activities (% of wt) L177R value is on record for "C=C(C)CCl" ? 83 % of wt

====

Target: haloalkane dehalogenase LinB L177Q (Sphingobium indicum, UniProt D4Z2G1, L177Q)
Sequence (D4Z2G1 whole entry L177Q, looked up): as the sequence (D4Z2G1 whole entry L177K, looked up) above, with K177Q counted along it
Assay type: biochemical
readout.label: Relative activities (% of wt) L177Q

Solved cases below.
query.smiles | readout.label | endpoint.result
CCCCBr | Relative activities (% of wt) L177Q | 458 % of wt
CCCCI | Relative activities (% of wt) L177Q | 373 % of wt
BrCCBr | Relative activities (% of wt) L177Q | 123 % of wt

# value lookup — system haloalkane dehalogenase LinB L177Q (Sphingobium indicum, UniProt D4Z2G1, L177Q), readout Relative activities (% of wt) L177Q, item "ICCCI" 159 % of wt

Relative activities (% of wt) L177Q of "C=C(C)CCl" on haloalkane dehalogenase LinB L177Q (Sphingobium indicum, UniProt D4Z2G1, L177Q)? 138 % of wt

====

Recorded measurements of Relative activities (% of wt) L177H, one per entry
Biological target: haloalkane dehalogenase LinB L177H (Sphingobium indicum, UniProt D4Z2G1, L177H)
Sequence (D4Z2G1 whole entry L177H, looked up): as the sequence (D4Z2G1 whole entry L177K, looked up) above, with K177H counted along it
Format: biochemical

// returns reported Relative activities (% of wt) L177H for input "CCCCI" 208 % of wt

Need Relative activities (% of wt) L177H of "C=C(C)CCl" , thanks. 82 % of wt

# input compound: "ICCCI" ; wanted: its Relative activities (% of wt) L177H 140 % of wt

// query Relative activities (% of wt) L177H value for entry "CCCCBr" 224 % of wt

// returns reported Relative activities (% of wt) L177H for input "BrCCBr" 55 % of wt

====

Target: haloalkane dehalogenase LinB L177M (Sphingobium indicum, UniProt D4Z2G1, L177M)
Assay type: biochemical
Relative activities (% of wt) L177M reference

# count of solved cases: 4
query.smiles | Relative activities (% of wt) L177M
BrCCBr | 126 % of wt
C=C(C)CCl | 100 % of wt
ICCCI | 202 % of wt
CCCCI | 187 % of wt

Moving on to the next compound.
// query Relative activities (% of wt) L177M value for entry "CCCCBr" 227 % of wt

====

Biological target: haloalkane dehalogenase DbjA (Bradyrhizobium diazoefficiens, UniProt P59337)
Type: biochemical, Bradyrhizobium japonicum USDA110
Conditions: pH 8.6
readout.label: Relative enzyme activity (%) 10% of solvent
Report the figure in % without appending any unit label.

# input compound: NC=O [Formamide] ; wanted: its Relative enzyme activity (%) 10% of solvent 76.3

# lookup: Relative enzyme activity (%) 10% of solvent of CN(C)C=O [N,N-dimethylformamide] 112.6

GET /values?readout=Relative enzyme activity (%) 10% of solvent&item= C1CCOC1 [tetrahydrofurane] 96.9

# get_value(readout='Relative enzyme activity (%) 10% of solvent', item= C1COCCO1 [1,4-dioxane] ) 139.9

Relative enzyme activity (%) 10% of solvent lookup needed for OCCO [ethyleneglycol] , thanks. 80.5

Fill in: Relative enzyme activity (%) 10% of solvent of CC(C)=O [acetone] is ___ 140.3

I have this compound here, CC#N [acetonitrile] , and I need its recorded Relative enzyme activity (%) 10% of solvent. 124.1

Fill blank: measured Relative enzyme activity (%) 10% of solvent of the compound CO [Methanol] is ____. 128.7

====

Target: haloalkane dehalogenase LinB L177A (Sphingobium indicum, UniProt D4Z2G1, L177A)
Format: biochemical
readout.label: Relative activities (% of wt) L177A

query.smiles | endpoint.result
BrCCBr | 155 % of wt
ICCCI | 360 % of wt
CCCCI | 133 % of wt
CCCCBr | 356 % of wt

Next up:
State the recorded Relative activities (% of wt) L177A for this entry: "C=C(C)CCl" 199 % of wt

====

Biological target: haloalkane dehalogenase LinB (Sphingobium indicum, UniProt D4Z2G1)
Sequence (D4Z2G1 whole entry): as the sequence (D4Z2G1 whole entry L177G, looked up) above, with G177L counted along it
Type: biochemical, Sphingomonas paucimobilis UT26
readout.label: E-values LinB
Answer with the value's number alone.

Previously resolved entries follow.
compound | E-values LinB
CCCCC(C)Br (racemic) | 12
CCOC(=O)C(C)Br (racemic) [ethyl 2-bromopropionate] | 97
CC(Cl)CCCl (racemic) | 2.6
COC(=O)C(Br)CCBr (racemic) [methyl 2,4-dibromobutyrate] | 1.9

Query: E-values LinB; subject: CC(CCl)CBr (racemic) 1.8

Data request, read-out E-values LinB, for CC(Br)C(=O)c1ccccc1 (racemic) 13

What value of measured E-values LinB is listed for CCCCCC(C)Br (racemic) ? 2.8

Record request: E-values LinB value, item CCC(Br)CBr (racemic) 10

What E-values LinB value was documented for this compound, CC(Br)CCBr (racemic) ? 4.6

Using the record for COC(=O)C(C)Br (racemic) [methyl 2-bromopropionate] , report its E-values LinB. 52

So what's the measured E-values LinB for this one? CC(C)(C)C(Br)CBr (racemic) 1.1

Need E-values LinB of CCCC(C)Br (racemic) , thanks. 16

Look up E-values LinB for this compound: CC(Br)CBr (centres unmarked) 1.3
